# Tested system: CyclinB1/CDK1 (Homo sapiens)
# Construct: purchased Eurofins, discovery 14-450
# Experiment notes: Fluorescence Polarization (FP) competitive binding assay, Cyclin B1/Cdk1;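 note: fluorescence polarization read after equilibration at room temperature, with IC50 taken from serially diluted dose-response curves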
# Measurement context: 10 nM Cyclin B1/Cdk1, 2 nM FAM probe; average of 2-3 independent experiments; read-out: Cyclin B FP IC50
*1 amine or outer side, *2 acyl side, *3 side chain or, on linkers, in order; H or OH if unused. Where a SMILES comes first, the peptide text is derived from it. Bridges are numbered along the chain shown (N, C = ends). [ ]: non-standard residue; d: D form. The star is where a group is joined. X52 = CN1C[C@@H]2C[C@H]1CN2c1ccc(-c2ccc(Cl)cc2C[C@@H](C(=O)[*:2])N(C)[*:1])cc1; NMehhhLys(Me) = CN([C@@H](CCCCCCCN(C)[*:3])C(=O)[*:2])[*:1]; X213 = CN([C@@H](Cc1cc(Cl)cc2c1cnn2C)C(=O)[*:2])[*:1]; cBuCO(3,3-F2-1-CF3) = O=C(C1(C(F)(F)F)CC(F)(F)C1)*; Pro(trans-4-F) = O=C(O)[C@@H]1C[C@@H](F)CN1; Gly(cPr) = N[C@H](C(=O)O)C1CC1
Parameter measured: pIC50
Worth noting: pIC50 values are minus log10 of concentrations stated in mol/L.

The cases that follow already have their pIC50 on record.
>  <Compound>
CC(C)C[C@@H]1NC(=O)[C@@H](N(C)C(=O)[C@@H](NC(=O)[C@@H]2C[C@@H](F)CN2C(=O)C2(C(F)(F)F)CC(F)(F)C2)C2CC2)CC=CCCCCNC(=O)[C@H](Cc2cc(Cl)ccc2-c2cnn(C)c2)N(C)C1=O

>  <Recorded value>
7.70

$$$$
>  <Compound>
CC(C)C[C@@H]1NC(=O)[C@@H](N(C)C(=O)[C@@H](NC(=O)[C@@H]2C[C@@H](F)CN2C(=O)C2(C(F)(F)F)CC(F)(F)C2)C2CC2)CCCCCCCN(C)C(=O)[C@H](Cc2cc(Cl)cc3c2cnn3C)N(C)C1=O [Example 424] ({cBuCO(3,3-F2-1-CF3)}-[Pro(trans-4-F)][Gly(cPr)][NMehhhLys(Me)]L[X213]; lactam 3-C)

>  <Recorded value>
7.34

$$$$

Recorded pIC50 (compound CC(C)C[C@@H]1NC(=O)[C@@H](N(C)C(=O)[C@@H](NC(=O)[C@@H]2C[C@@H](F)CN2C(=O)C2(C(F)(F)F)CC(F)(F)C2)C2CC2)CCCCCCCN(C)C(=O)[C@H](Cc2cc(Cl)ccc2-c2ccc(N3C[C@@H]4C[C@H]3CN4C)cc2)N(C)C1=O [Example 357] ({cBuCO(3,3-F2-1-CF3)}-[Pro(trans-4-F)][Gly(cPr)][NMehhhLys(Me)]L[X52]; lactam 3-C) ): 7.70

Recorded pIC50 (compound `CC(C)C[C@@H]1NC(=O)[C@@H](N(C)C(=O)[C@@H](NC(=O)[C@@H]2C[C@@H](F)CN2C(=O)C2(C(F)(F)F)CC(F)(F)C2)C2CC2)CC=CCCCCN(C)C(=O)[C@H](Cc2cc(F)ccc2C2=CCCC2)N(C)C1=O` ): 7.70
